- Study target: T1, human neuropeptide Y2 receptor (human, UniProt P49146 1-381)
- T1 sequence (looked up): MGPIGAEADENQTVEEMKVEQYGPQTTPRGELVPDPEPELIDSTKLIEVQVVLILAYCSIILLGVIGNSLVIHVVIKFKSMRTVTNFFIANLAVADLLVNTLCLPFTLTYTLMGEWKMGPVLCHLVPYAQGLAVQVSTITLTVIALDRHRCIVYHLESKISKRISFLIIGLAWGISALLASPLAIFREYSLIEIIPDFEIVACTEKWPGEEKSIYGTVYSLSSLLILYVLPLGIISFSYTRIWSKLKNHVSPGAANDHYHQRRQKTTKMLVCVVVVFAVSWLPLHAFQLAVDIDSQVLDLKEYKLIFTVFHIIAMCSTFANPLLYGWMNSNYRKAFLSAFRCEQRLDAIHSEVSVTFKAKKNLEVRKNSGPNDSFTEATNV
- Assay method text: cell-based or functional assay
Starred links: 1 amine or outer side, 2 acyl side, 3 side chain; linkers in the order of their positions; H or OH if unused. Non-standard residues stand in square brackets, D forms with d. Groups on a side chain read outwards from the residue. No end group written: not given here. *: point of attachment. C18 diacid = O=C(O)CCCCCCCCCCCCCCCCC(=O)*; γGlu = O=C(O)[C@H](CCC(=O)[*:2])N[*:1]; AEEA = NCCOCCOCC(=O)O; Aib = CC(C)(N)C(=O)O
Below is a list of entries, each paired with its recorded EC50 CreLuc hNPY2R 100% hP value.
Output should be the measured figure followed by the unit it is expressed in.

Sample answers from the record:
YXEGTFTSDYSIXLEKQAQXAFVEWLIKGGPSSAASLRHYYNWLTRQRY (Aib at 2, 13, 20; K28 side chain: C20DA-gGlu-gGlu-gGlu-gGlu-gGlu-gGlu-eLys; C-terminal NH2) [Compound 98] :: 64.2 nM
YXEGTFTSDYSIXLEKQAQXAFVEWLIKGGPRSGASLRHYYNWLTRQRY (Aib at 2, 13, 20; K28 side chain: C20DA-gGlu-gGlu-gGlu-gGlu-gGlu-gGlu-eLys; C-terminal NH2) [Compound 168] :: 36.1 nM
Y[Aib]EGTFTSDYSI[Aib]LEKQAQ[Aib]AFVEWLIK([AEEA-AEEA-γGlu-γGlu-γGlu-γGlu-C18 diacid])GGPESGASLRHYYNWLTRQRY-NH2 [Compound 163] :: 55.2 nM
Y[Aib]EGTFTSDYSI[Aib]LEKQAQ[Aib]EFVEWLIK([AEEA-AEEA-γGlu-γGlu-γGlu-C18 diacid])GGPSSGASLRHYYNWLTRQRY-NH2 [Compound 171] :: 30.4 nM

Here's the next entry for you.
Respond only with EC50 CreLuc hNPY2R 100% hP recorded for YXEGTFTSDYSIXLEKQAQXAFVQWLIKGGPSSGASLRHYYNWLTRQRY (Aib at 2, 13, 20; K28 side chain: C20DA-gGlu-gGlu-gGlu-gGlu-gGlu-OEG-OEG; C-terminal NH2) [Compound 112]
27.6 nM
